- SYSTEM UNDER TEST: Type II NOS (RAW macrophage cell cytosol) (Mus musculus)
- Construct: cytosolic preparations from RAW 264.7 cells; endogenous in cells
- TEST DETAILS: [3H]-Arginine to [3H]-Citrulline conversion, RAW cell cytosol (Type II NOS)
- CONDITION PARAMETERS: LPS induced, read-out: Inhibition of [3H]-Citrulline Formation IC50, RAW Cell cytosol
QUANTITY KIND: IC50

| MOLECULE | IC50 |
| --- | --- |
| CCNC(=N)NC/C=C/[C@H]1COC(C)(C)N1C(=O)OC(C)(C)C [Example 11] | > 100 µM |

Item under review: N=C(N)NC/C(=C/[C@H](N)CO)Cc1ccccc1 [Example 25] . Reported IC50?
> 100 µM

Would you kindly share the measured IC50 for N=C(NN)NC/C=C/[C@H](N)CO [Example 6] ?
22 µM

Please give the measured IC50 for this molecule: CCNC(=N)NC/C=C/[C@H](N)CO [Example 12]
> 100 µM

Any idea what IC50 was measured for CC(C)(C)OC(=O)N1[C@@H](/C=C/CNC(=N)N[N+](=O)[O-])COC1(C)C [Example 1] ?
> 100 µM

Any idea what IC50 was measured for CNC(=N)NC/C=C/[C@@H]1COC(C)(C)N1C(=O)OC(C)(C)C [Example 18] ?
> 100 µM
